The reported measurements were obtained from ChEMBL document CHEMBL4513216.

- Assay Notes: Toxicity liver stage against HepG2, at 10uM
- Format: cell-based
- Set-up: test concentration 10 uM, cell line HepG2-A16-CD81EGFP
- Condition: human, HepG2-A16-CD81EGFP cells; read-out: INHIBITION
Readout Type: cytotoxicity at 10 µM (%)
# output: bare number, implied unit %

Known results for compounds:
>>> recorded_value("CN(C)S(=O)(=O)c1ccc2c(c1)N(Cc1nccn1C)CC2")
-3.42
>>> recorded_value("CNc1nc(CNC(=O)Nc2ccc(OC(C)C)cc2C)cs1")
26.4
>>> recorded_value("Cc1cc(=O)c2ccccc2n1CC1CCNC1 (stereo not given)")
5.98
>>> recorded_value("CCc1ncc(C(=O)N2CCCOC(Cn3cccn3)C2)cn1 (stereo not given)")
-0.95
>>> recorded_value("CN(Cc1ccsc1)C(=O)CN1CCCCC1Cn1cccn1 (stereo not given)")
-1.07

Qu. Name the recorded cytotoxicity at 10 µM for CNc1ncc(-c2ccc(NC(=O)[C@@H]3CCCCN3)cc2)cn1 .
Ans. -7.66

Qu. Please report the recorded cytotoxicity at 10 µM for CCc1nc2ccccc2c(=O)n1CC1(O)CCN(CC(=O)OC)CC1 .
Ans. -4.99

Qu. Query (compound): COCC1COCCC12CCN(C(=O)Cc1ccc(F)cc1)CC2 (stereo not given) ; field requested: cytotoxicity at 10 µM
Ans. 1.68

Qu. Can you share its cytotoxicity at 10 µM? I mean this compound: COCc1ccc(C(=O)NS(=O)(=O)c2ccc3c(c2)CCC(=O)N3)cc1
Ans. -1.89

Qu. Any idea what its cytotoxicity at 10 µM is? The compound is CCC[C@H]1CN(S(=O)(=O)c2cc(C)ccc2F)C[C@@H]1N
Ans. 2.33

Qu. For CC(C)N1CCC2(CC1)C(=O)N(c1cccnc1)c1ccc(F)cc12 , what is its reported cytotoxicity at 10 µM?
Ans. 12.4

Qu. What does the data say about its cytotoxicity at 10 µM? Entry: CCN(CC)C(=O)Nc1ccc(N2CCSCC2)cc1C
Ans. -8.44

Qu. Form field: reported cytotoxicity at 10 µM of CN(C)c1nccc(C2CCN(C3CCCCC3O)CC2)n1 (stereo not given)
Ans. 1.98

---

- Assay Notes: Toxicity liver stage against HepG2, at 10uM
- Assay type: cell-based
- Parameters: test concentration 10 uM, cell line HepG2-A16-CD81EGFP
- Condition: human, HepG2-A16-CD81EGFP cells; read-out: INHIBITION
Readout Type: cytotoxicity at 10 µM (%)
Your answer should be a plain number; it is taken to be in %.

Known cytotoxicity at 10 µM results, listed for orientation:
>>> recorded_value("O=C(NC1CC1)[C@H]1CC[C@@H]2[C@@H](CCN2CCOCc2ccccc2)O1")
-115
>>> recorded_value("CCc1ccc2nc(NCC(O)CO)cc(C)c2c1 (stereo not drawn)")
-15.4
>>> recorded_value("Cc1cnn(CC2CCCN2C(=O)c2cccc3c2OCO3)c1 (stereo not drawn)")
-5.25
>>> recorded_value("Cc1cccc(COC[C@]23COC[C@H]2CN(C(=O)c2ccsc2)C3)n1")
-7.85
>>> recorded_value("NCc1cn(-c2ccccc2C(=O)NCc2cccc(Cl)c2)cn1")
4.14

Qu. Look at this compound and give its reported cytotoxicity at 10 µM. Cc1noc(C)c1CN(C)Cn1c(=O)n(C)c2ccccc21
Ans. 5.25

Qu. Form field: reported cytotoxicity at 10 µM of O=C(O)c1ccc2c(CN3CCOCC3)c[nH]c2c1
Ans. 4.91

Qu. Returns the measured cytotoxicity at 10 µM for the input compound. Input: COCC(=O)N1CCCC1c1ccc(C(=O)NCc2ccccc2Cl)s1 (stereo not drawn)
Ans. -0.909

Qu. Form field: reported cytotoxicity at 10 µM of O=C1CN(c2ccc(CNC(=O)Nc3nnc(C4CC4)s3)cc2)CCN1
Ans. -3.73

Qu. Which cytotoxicity at 10 µM value belongs to O=C(Nc1cnc2n1CCCC2)c1cccc(-n2cnnc2)c1 ?
Ans. -4.34
